Task for the reader: assign each of the following compounds its reported chemical recovery.
- procedure.details: chemical recovery from spiked human plasma; higher = better extraction
- setup.conditions: pooled human plasma; extraction method: solvent precipitation (ACN + hexane)
Report the value in % with no unit label.

Q: Query chemical recovery for CC(C(=O)O)c1cccc(C(=O)c2ccccc2)c1 (stereo not drawn)
A: 68.4

Q: Query chemical recovery for CCOC(=O)NCCOc1ccc(Oc2ccccc2)cc1
A: 72

Q: Query chemical recovery for CC[C@H]1CCC[C@H](O[C@H]2CC[C@H](N(C)C)[C@@H](C)O2)[C@@H](C)C(=O)C2=C[C@@H]3[C@@H](C=C[C@@H]4C[C@@H](O[C@@H]5O[C@@H](C)[C@H](OC)[C@@H](OC)[C@H]5OC)C[C@@H]34)[C@@H]2CC(=O)O1 [Spinosyn A]
A: 71.7

* * *

- procedure.details: chemical recovery from spiked human plasma; higher = better extraction
- setup.conditions: pooled human plasma; extraction method: SPE only (HLB 96-well)
measurement.label: chemical recovery (%)
Report the value in % with no unit label.

Q: Query chemical recovery for CC(C)NCC(O)COc1ccc(CC(N)=O)cc1 (stereo unspecified)
A: 14

Q: Query chemical recovery for N[C@@H](CC(=O)N1CCn2c(nnc2C(F)(F)F)C1)Cc1cc(F)c(F)cc1F
A: 30

Q: Query chemical recovery for O=C(O)C(F)(F)C(F)(F)C(F)(F)C(F)(F)C(F)(F)C(F)(F)C(F)(F)F
A: 30.2

Q: Query chemical recovery for CC1=CC(=O)CC(C)(C)C1
A: 0.623

Q: Query chemical recovery for N#C/N=C1\SCCN1Cc1ccc(Cl)nc1
A: 43.4

Q: Query chemical recovery for COC(=O)Nc1nc2cc(C(=O)c3ccccc3)ccc2[nH]1
A: 45

Q: Query chemical recovery for CC(C)(C)c1ccc(CSc2cnn(C(C)(C)C)c(=O)c2Cl)cc1
A: 7.91

Q: Query chemical recovery for O=C(c1ccccc1)c1ccc(O)cc1 [4-Hydroxybenzophenone]
A: 53

Q: Query chemical recovery for CC1=CC(=O)NS(=O)(=O)O1
A: 19.4

Q: Query chemical recovery for CC(=O)c1c(C)c([N+](=O)[O-])c(C(C)(C)C)c([N+](=O)[O-])c1C
A: 1.17

Q: Query chemical recovery for O=S(=O)(O)c1cccc2ccc(O)cc12
A: 61.3

Q: Query chemical recovery for COc1cc(Cc2cnc(N)nc2N)cc(OC)c1OC
A: 45

Q: Query chemical recovery for CN/C(=N\[N+](=O)[O-])NCc1cnc(Cl)s1
A: 55.1

Q: Query chemical recovery for NC(=O)c1c(Cl)c(Cl)cc(C(=O)O)c1Cl
A: 30.6

Q: Query chemical recovery for NC(=O)N1c2ccccc2C=Cc2ccccc21 [Carbamazepine]
A: 48.5

Q: Query chemical recovery for c1ccc2c(c1)-c1cccc3cccc-2c13
A: 6.27

Q: Query chemical recovery for O=[N+]([O-])c1ccc(O)c([N+](=O)[O-])c1
A: 48.7

Q: Query chemical recovery for O=C(O)C(F)(F)C(F)(F)F
A: 3.57

Q: Query chemical recovery for O=C1CCCCCCCCCCC1
A: 4.5

Q: Query chemical recovery for COC(=O)CC(O)(CC(=O)OC)C(=O)OC [Trimethylcitrate]
A: 30.7

Q: Query chemical recovery for Cc1ccc(OS(=O)(=O)O)cc1 [p-Tolylsulfate]
A: 91

Q: Query chemical recovery for CCCCn1cc[n+](C)c1
A: 3.53

Q: Query chemical recovery for CCC(=C(c1ccc(O)cc1)c1ccc(OCCN(C)C)cc1)c1ccccc1 [4-Hydroxytamoxifen]
A: 46.8

Q: Query chemical recovery for O=C(O)C(F)(F)C(F)(F)C(F)(F)C(F)(F)C(F)(F)C(F)(F)C(F)(F)C(F)(F)C(F)(F)C(F)(F)F
A: 26.8

Q: Query chemical recovery for CC(C)(Oc1ccc(Cl)cc1)C(=O)O
A: 44.7

Q: Query chemical recovery for Oc1ccc(C(c2ccc(O)cc2)(C(F)(F)F)C(F)(F)F)cc1
A: 51.2
